experiment: Three time point assay for plasma, brain and testes distribution after oral dosing; assay type: in vivo, rat; details: rat, oral dosing, time point 0.5 h
quantity kind: Kp testes/plasma
Output spec: single numeric token, no unit.

What Kp testes/plasma value was documented for this compound, COc1ccn2c(C(=O)Nc3cc(-c4noc(CC(O)C(F)F)n4)ccc3C)cnc2c1 (single isomer, unassigned) [Compound I-40] ? 0.17

What Kp testes/plasma value was documented for this compound, Cc1ccc(-c2noc([C@H]3C[C@@H]3F)n2)cc1NC(=O)c1cnc2cc(OC(C)C)ccn12 [Compound I-88] ? 0.19

What Kp testes/plasma value was documented for this compound, Cc1ccc(-c2noc([C@H]3C[C@@H]3F)n2)cc1NC(=O)c1cnc2cc(OC(F)(F)F)ccn12 [Compound I-87] ? 0.38

What Kp testes/plasma value was documented for this compound, Cc1ccc(-c2noc(CC(O)C(F)F)n2)cc1NC(=O)c1cnc2ccccn12 (stereo not shown) [Compound I-114] ? 0.17
